Parameter: GI50. Scope: all listed entries.
Test system: OVCAR-8
protocol-notes: NCI60 five-dose screen
Assay type: cell-based
experimental-setup: Homo sapiens, OVCAR-8
quantity: GI50 (nM)

molecule: CC[C@]12C=CCN3CC[C@@]4(c5ccc(OC)cc5N(C)[C@H]4[C@@](O)(C(=O)OC)[C@@H]1OC(=O)CCCC[P+](c1ccc(OC)cc1)(c1ccc(OC)cc1)c1ccc(OC)cc1)[C@@H]32 [10b]
unit-annotation: nM
observed: 1990
--
molecule: CC[C@]12C=CCN3CC[C@@]4(c5ccc(OC)cc5N(C)[C@H]4[C@@](O)(C(=O)OC)[C@@H]1OC(=O)CCC[P+](C1CCCCC1)(C1CCCCC1)C1CCCCC1)[C@@H]32
unit-annotation: nM
observed: 2970
--
molecule: CC[C@]12C=CCN3CC[C@@]4(c5ccc(OC)cc5N(C)[C@H]4[C@@](O)(C(=O)OC)[C@@H]1OC(=O)CCCC[P+](C1CCCCC1)(C1CCCCC1)C1CCCCC1)[C@@H]32 [10d]
unit-annotation: nM
observed: 2930
--
molecule: CCC12C=CCN3CCC4(c5ccc(OC)cc5N(C)C4C(O)(C(=O)OC)C1OC(=O)CCC[P+](c1ccc(C)cc1)(c1ccc(C)cc1)c1ccc(C)cc1)C32 (stereo not shown)
unit-annotation: nM
observed: 372
